tested on: Mesenchymal stem cells; assay: Induction of adipogenesis differentiation in human Mesenchymal stem cells at 20 uM incubated for 21 days by […] staining-based microscopic analysis; type: functional, cell-based; conditions: time 21.0 day
Calls of active or inactive are those of the source. The rule behind the calls is not given here.
Please state which outcome applies, choosing from Yes (active), No (inactive)

What classification did Cc1sc(-c2ccc(C(F)(F)F)cc2)nc1CN(C)c1ccc(/C=C/C(=O)O)cc1 end up with in this test? No

Entry Cc1cc(N(C)Cc2sc(-c3ccc(C(F)(F)F)cc3)nc2C)ccc1/C=C/C(=O)O please No

What would you report for Cc1nc(-c2ccc(C(F)(F)F)cc2)sc1CN(c1ccc(/C=C/C(=O)O)cc1)C(C)C ? No

Continue with Cc1nc(-c2cccc(C(F)(F)F)c2)sc1CSc1ccc(/C=C/C(=O)O)cc1 Yes

Do the same for Cc1nn(-c2ccc(C(F)(F)F)cc2)nc1CNc1ccc(/C=C/C(=O)O)cc1 please Yes

Now this one: CCc1cc(N(C)Cc2sc(-c3ccc(C(F)(F)F)cc3)nc2C)ccc1/C=C/C(=O)O Yes

How about this molecule: Cc1cc(/C=C/C(=O)O)ccc1N(C)Cc1sc(-c2ccc(C(F)(F)F)cc2)nc1C No
